Below: a set of entries, each annotated with reported viability, T/C.
System: 242566-281-R-J2-PDC complex spheroid viability
run.description: Anticancer human tumor 242566-281-R-J2-PDC patient-derived pancreatic carcinoma cell line growth inhibition [RAS]
condition.summary: second compound 0.316 µM; first compound 0.0316 µM; active compounds read low
Description: RAS pathway inhibitors in Combinations in Complex Spheroids A high-throughput screen of multi-cell type tumor spheroids was designed to identify active combinations of RAS pathway inhibitors and targeted small molecules. Complex spheroids include a stromal component modeled by human endothelial cells (HUVEC) and fibroblasts modeled by human mesenchymal stem cells (MSCs). […] Compounds. […] If the clinical Cmax for an agent had not been determined, the highest concentration tested was 10 microM. […]
Dear colleague, please return just the value in %, with no unit written.

[[record]]
compound = "CC(C)n1nc(-c2ccc3oc(N)nc3c2)c2c(N)ncnc21 + C#Cc1c(F)ccc2cc(O)cc(-c3ncc4c(N5CC6CCC(C5)N6)nc(OCC56CCCN5CC(F)C6)nc4c3F)c12"
target_of_assay = "242566-281-R-J2-PDC complex spheroid viability"
unit_string = "%"
result_value = 38

[[record]]
compound = "Cc1nc(N2CCC3(CC2)COC(C)C3N)c(CO)nc1Sc1ccnc(N)c1Cl (stereo unspecified) + C#Cc1c(F)ccc2cc(O)cc(-c3ncc4c(N5CC6CCC(C5)N6)nc(OCC56CCCN5CC(F)C6)nc4c3F)c12"
target_of_assay = "242566-281-R-J2-PDC complex spheroid viability"
unit_string = "%"
result_value = 69.9

[[record]]
compound = "NC1c2ccccc2OC12CCN(c1cnc3c(N4CCCc5ncccc54)n[nH]c3n1)CC2 (stereo unspecified) + C#Cc1c(F)ccc2cc(O)cc(-c3ncc4c(N5CC6CCC(C5)N6)nc(OCC56CCCN5CC(F)C6)nc4c3F)c12"
target_of_assay = "242566-281-R-J2-PDC complex spheroid viability"
unit_string = "%"
result_value = 40.6

[[record]]
compound = "O=C(c1ccc(F)c(F)c1Nc1ccc(I)cc1F)N1CC(O)([C@@H]2CCCCN2)C1 + C#Cc1c(F)ccc2cc(O)cc(-c3ncc4c(N5CC6CCC(C5)N6)nc(OCC56CCCN5CC(F)C6)nc4c3F)c12"
target_of_assay = "242566-281-R-J2-PDC complex spheroid viability"
unit_string = "%"
result_value = 49.9

[[record]]
compound = "C[C@@H](NC(=O)c1ncnc(N)c1Cl)c1ncc(C(=O)Nc2cc(C(F)(F)F)c(Cl)cn2)s1 + C=CC(=O)N1CCN(c2nc(OCC3CCCN3C)nc3c(F)c(-c4nc(N)cc(C)c4C(F)(F)F)c(Cl)cc23)C(C)C1"
target_of_assay = "242566-281-R-J2-PDC complex spheroid viability"
unit_string = "%"
result_value = 107


Next up:
Which measured viability, T/C value corresponds to Nc1ccn(C2OC(CO)C(O)C2(F)F)c(=O)n1 (stereo unspecified) + C=CC(=O)N1CCN(c2nc(OCC3CCCN3C)nc3c(F)c(-c4nc(N)cc(C)c4C(F)(F)F)c(Cl)cc23)C(C)C1 ?
75.5

====

Tested on: 242566-281-R-J2-PDC complex spheroid viability
run.description: Anticancer human tumor 242566-281-R-J2-PDC cell line growth inhibition [RAS];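 also: spheroids exposed to compound for 7 days before readout; 100% = DMSO vehicle control wells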
condition.summary: second compound 0.000949 µM; first compound 1 µM; active compounds read low
property.label: viability, T/C (%)
Dear colleague, please return just the value in %, with no unit written.

Known viability, T/C results, listed for orientation:
[[record]]
molecule = "C[C@@H](NC(=O)c1ncnc(N)c1Cl)c1ncc(C(=O)Nc2cc(C(F)(F)F)c(Cl)cn2)s1 + CCn1c(-c2cc(N3CCN(C)CC3)cnc2C(C)OC)c2c3cc(ccc31)-c1csc(n1)CC(NC(=O)C1CC1C)C(=O)N1CCCC(N1)C(=O)OCC(C)(C)C2"
result_value = 97.9

[[record]]
molecule = "Nc1ccn(C2OC(CO)C(O)C2(F)F)c(=O)n1 (stereo not given) + CCn1c(-c2cc(N3CCN(C)CC3)cnc2C(C)OC)c2c3cc(ccc31)-c1csc(n1)CC(NC(=O)C1CC1C)C(=O)N1CCCC(N1)C(=O)OCC(C)(C)C2"
result_value = 10.3

[[record]]
molecule = "CCN1CCN(Cc2ccc(Nc3ncc(F)c(-c4cc(F)c5nc(C)n(C(C)C)c5c4)n3)nc2)CC1 + CCn1c(-c2cc(N3CCN(C)CC3)cnc2C(C)OC)c2c3cc(ccc31)-c1csc(n1)CC(NC(=O)C1CC1C)C(=O)N1CCCC(N1)C(=O)OCC(C)(C)C2"
result_value = 83.7

[[record]]
molecule = "C=CC(=O)Nc1cc(Nc2nccc(-c3cn(C)c4ccccc34)n2)c(OC)cc1N(C)CCN(C)C + CCn1c(-c2cccnc2C(C)OC)c2c3cc(ccc31)N1CCOC(CC(NC(=O)C(C(C)C)N(C)C(=O)C3(F)CCN(C(=O)C#CC(C)(C)N(C)C)CC3)C(=O)N3CCCC(N3)C(=O)OCC(C)(C)C2)C1"
result_value = 50.3

[[record]]
molecule = "NC1c2ccccc2OC12CCN(c1cnc3c(N4CCCc5ncccc54)n[nH]c3n1)CC2 (stereo not given) + CCn1c(-c2cc(N3CCN(C)CC3)cnc2C(C)OC)c2c3cc(ccc31)-c1csc(n1)CC(NC(=O)C1CC1C)C(=O)N1CCCC(N1)C(=O)OCC(C)(C)C2"
result_value = 24.9

[[record]]
molecule = "O=C(c1ccc(F)c(F)c1Nc1ccc(I)cc1F)N1CC(O)([C@@H]2CCCCN2)C1 + CCn1c(-c2cccnc2C(C)OC)c2c3cc(ccc31)N1CCOC(CC(NC(=O)C(C(C)C)N(C)C(=O)C3(F)CCN(C(=O)C#CC(C)(C)N(C)C)CC3)C(=O)N3CCCC(N3)C(=O)OCC(C)(C)C2)C1"
result_value = 19.5

[[record]]
molecule = "CCC(CC)c1cc(NC2CCC(N)C2)n2nccc2n1 (stereo not given) + CCn1c(-c2cc(N3CCN(C)CC3)cnc2C(C)OC)c2c3cc(ccc31)-c1csc(n1)CC(NC(=O)C1CC1C)C(=O)N1CCCC(N1)C(=O)OCC(C)(C)C2"
result_value = 90.1

[[record]]
molecule = "NC1c2ccccc2OC12CCN(c1cnc3c(N4CCCc5ncccc54)n[nH]c3n1)CC2 (stereo not given) + CCn1c(-c2cccnc2C(C)OC)c2c3cc(ccc31)N1CCOC(CC(NC(=O)C(C(C)C)N(C)C(=O)C3(F)CCN(C(=O)C#CC(C)(C)N(C)C)CC3)C(=O)N3CCCC(N3)C(=O)OCC(C)(C)C2)C1"
result_value = 64.5


Which measured viability, T/C value corresponds to CC(Nc1ccc2c(c1)OCCn1cc(N3C(=O)OCC3C(F)F)nc1-2)C(N)=O (stereo not given) + CCn1c(-c2cccnc2C(C)OC)c2c3cc(ccc31)N1CCOC(CC(NC(=O)C(C(C)C)N(C)C(=O)C3(F)CCN(C(=O)C#CC(C)(C)N(C)C)CC3)C(=O)N3CCCC(N3)C(=O)OCC(C)(C)C2)C1 ?
55
